In this section, each of the compounds is paired with its reported Variation.
# Species: Cavia porcellus
# assayInfo: Effect on the contractile force of spontaneously beating atria from Reserpine-treated guinea pigs as percentage variation from the control at concentration of 10E-6 M
# Format: functional
parameter: Variation (%)

1. CCCc1nc(N(C)C)ncc1C(=O)OCC: 0
2. CN(C)c1ncc(C(=O)O)cn1: 3.76
3. CN(C)c1ncc(C(=O)O)c(C(C)(C)C)n1: 3.51

###

# Organism: Cavia porcellus
# assayInfo: Effect on the contractile force of spontaneously beating atria from Reserpine-treated guinea pigs as percentage variation from the control at concentration of 10E-3 M
# Assay type: functional
parameter: Variation (%)

1. Cc1ccnc(N(C)C)n1: -36.67
2. CN(C)c1ncc(C(=O)O)cn1: 9.64
3. CCCc1ccnc(N(C)C)n1: -91.86
4. CN(C)c1ncc(C(=O)O)c(C(C)(C)C)n1: 18.64
5. CN(C)c1ncc(C(=O)O)c(-c2ccccc2)n1: 18.2
6. COC(=O)c1cnc(N(C)C)nc1Cc1ccccc1: -100
7. CN(C)c1nccc(C(F)(F)F)n1: -100
8. CN(C)c1nccc(-c2ccccc2)n1: -100
9. CN(C)c1ncccn1: 41.66
10. CCOC(=O)c1cnc(N(C)C)nc1: -59.61
11. Cc1[nH]c(=O)c(C#N)cc1-c1ccncc1 [MILRINONE]: 31.09
12. CN(C)c1ncc(C(=O)O)c(Cc2ccccc2)n1: 88.05
13. CCc1nc(N(C)C)ncc1C(=O)O: 22.03
14. CC(C)c1nc(N(C)C)ncc1C(=O)O: 23.17
15. COCc1ccnc(N(C)C)n1: -20.93
16. COCc1nc(N(C)C)ncc1C(=O)O: 5.92
17. CN(C)c1ncc(C(=O)O)c(C(F)(F)F)n1: 9.52
18. CN(C)c1nccc(Cc2ccccc2)n1: -57.09
19. CC(C)c1ccnc(N(C)C)n1: -100
20. CCOC(=O)c1cnc(N(C)C)nc1C(F)(F)F: -60.44
21. CCOC(=O)c1cnc(N(C)C)nc1C(=O)OCC: -100
